Biological target: human PD-L1 on cell surface (human, UniProt Q9NZQ7 19-290)
Sequence (Q9NZQ7 19-290): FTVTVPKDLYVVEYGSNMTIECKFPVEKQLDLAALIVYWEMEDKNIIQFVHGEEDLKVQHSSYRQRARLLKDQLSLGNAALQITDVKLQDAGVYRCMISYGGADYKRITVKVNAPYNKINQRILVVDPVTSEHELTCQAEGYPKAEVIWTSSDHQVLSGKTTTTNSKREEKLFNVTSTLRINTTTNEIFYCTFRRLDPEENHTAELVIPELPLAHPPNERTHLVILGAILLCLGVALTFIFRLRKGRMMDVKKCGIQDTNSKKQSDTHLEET
Assay: cell-based or functional assay
measured.quantity: Top (best-fit value) of IL-2 release, mixed lymphocyte reaction
Please give only the number in your answer, with no unit.

Looking up AH01946 (antibody, human IgG1, V domains shown, also called mPD-L1Ab-CBM clone AH01946) VH: QVQLQESGPGLVKPSQTLSLTCTVSGYSITSGYTWHWIRQHPGKGLEWIGYIHYSGSTKYNPSLKSRVTISRDTSKNQFSLKLSSMTAADTAVYYCARNSLFASWGQGTLVTVSS VL: DIVLTQSPDSLAVSLGERATINCRASESVDTYGDSFMHWFQQKPGQPPKLLIYRASNLESGVPDRFSGSGSGTDFTLTISSVQAEDVAVYYCQQSNEAPYTFGGGTKLEIK , I found its Top (best-fit value) of IL-2 release, mixed lymphocyte reaction recorded as 2030
